Measured MFI pH 6.0, listed per entry for reference.
- tested.system: T1, human CD3 on CD3+ Jurkat cells (human, UniProt P07766 23-207)
- T1 construct: whole, on cells; Native CD3 complex on cells; the other CD3 chains are not specified for this assay; also called Human CD3+ Jurkat
- T1 sequence (P07766 23-207): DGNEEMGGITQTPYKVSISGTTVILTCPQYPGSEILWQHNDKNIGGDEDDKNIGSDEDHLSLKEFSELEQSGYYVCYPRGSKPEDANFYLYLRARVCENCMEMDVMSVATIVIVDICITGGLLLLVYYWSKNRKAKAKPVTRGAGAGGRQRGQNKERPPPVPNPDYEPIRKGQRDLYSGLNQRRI
- assay.comment: flow cytometry, 100 nM IgG on CD3+ Jurkat cells, pH 6.0
- Procedure: Specificity of the anti-CD3 antibodies for human CD3+ Jurkat cells compared to CHO-S cells at pH 6.0 and 7.4 was determined using a FACS cell binding assay. Briefly, CD3+ human Jurkat cells and CHO-S cells were thawed and washed with cold PBSF buffer, pH 7.4 (PBS+0.1% BSA, pH 7.4). About 200,000 cells were aliquoted per well of a 96-well plate and pelleted by centrifugation (5 minutes at 500×g). […] Binding was analyzed on FACS Canto II. Cell binding assays. […] Binding was analyzed on FACS Canto II.
Note: unit MFI is implicit; provide only the numeric part.

Look over these answered cases.
| binder | MFI pH 6.0 (MFI) |
| --- | --- |
| SAD10320_P03_F09 (ADI-48656) (antibody, V domains shown, IgG; also called Ab101) VH: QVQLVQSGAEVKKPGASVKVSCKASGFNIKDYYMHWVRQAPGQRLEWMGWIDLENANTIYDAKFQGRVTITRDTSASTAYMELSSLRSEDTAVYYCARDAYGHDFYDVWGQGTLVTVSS VL: DIVMTQSPDSLAVSLGERATINCKSSQSLLNARTGKNYLAWYQQKPGQPPKLLIYWASTRESGVPDRFSGSGSGTDFTLTISSLQAEDVAVYYCKQSYHRRTFGGGTKVEIK | 185 |
| SAD10319_P03_G08 (ADI-48638) (antibody, V domains shown, IgG; also called Ab22) VH: QVQLVQSGAEVKKPGASVKVSCKASGYTFSSYDMHWVRQAPGQRLEWMGWIDAGTGFTKYSQKFQGRVTITRDTSASTAYMELSSLRSEDTAVYYCARDAYGHYFYDHWGQGTLVTVSS VL: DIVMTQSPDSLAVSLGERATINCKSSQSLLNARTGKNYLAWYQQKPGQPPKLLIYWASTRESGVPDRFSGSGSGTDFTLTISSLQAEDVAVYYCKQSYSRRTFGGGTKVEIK | 2000 |
| SAD10318_P03_D09 (ADI-48610) (antibody, V domains shown, IgG; also called Ab206) VH: QVQLVQSGAEVKKPGASVKVSCKASGFNIKDYHMHWVRQAPGQRLEWMGWIDLENANTIYDAKFQGRVTITRDTSASTAYMELSSLRSEDTAVYYCARDAHHRYFYDVWGQGTLVTVSS VL: DIVMTQSPDSLAVSLGERATINCKSSQSLLNAHTGKNHLAWYQQKPGQPPKLLIYWASTRESGVPDRFSGSGSGTDFTLTISSLQAEDVAVYYCKQSHSHRTFGGGTKVEIK | 361 |
| SAD10319_P03_B09 (ADI-48639) (antibody, V domains shown, IgG; also called Ab24) VH: QVQLVQSGAEVKKPGASVKVSCKASGYTFTEYDMHWVRQAPGQRLEWMGWIDAGTGATVYSQKFQGRVTITRDTSASTAYMELSSLRSEDTAVYYCARDAYGRYFYDHWGQGTLVTVSS VL: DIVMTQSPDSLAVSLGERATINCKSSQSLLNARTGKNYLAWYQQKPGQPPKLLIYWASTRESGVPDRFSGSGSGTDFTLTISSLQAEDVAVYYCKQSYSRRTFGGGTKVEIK | 897 |

Attention now shifts to the item below.
Need MFI pH 6.0 of SAD10320_P02_F05 (ADI-48651) (antibody, V domains shown, IgG; also called Ab79) VH: QVQLVQSGAEVKKPGASVKVSCKASGFNIKDYYMHWVRQAPGQRLEWMGWIDLENANTIYDAKFQGRVTITRDTSASTAYMELSSLRSEDTAVYYCARDAYGRYHYDVWGQGTLVTVSS VL: DIVMTQSPDSLAVSLGERATINCKSSQSLLNARTGKNYLAWYQQKPGQPPKLLIYWASTRESGVPDRFSGSGSGTDFTLTISSLQAEDVAVYYCKQSYRHRTFGGGTKVEIK , thanks.
5620
